# credit: patent EP4596580A1

molecular target: T1, hFc-human LIGHT (human); assay: competition ELISA, LTβR-His coated, hFc-huLIGHT added
T1 construct: also called hFc-huLIGHT
readout-label: pIC50
Hey, just a heads up that pIC50 is the negative log base 10 of the concentration in molar.

# query: pIC50 of entry LT-m37 (antibody, human IgG4, V domains shown) VH: QVQLKQSGAELVRPGTSVKVSCKASGYSFTGYFINWVKQSHGKSLEWIGRIYPYNVNTFYNQNFKGRATLTADKSSSTAHMELLSLTSEDSAVYYCGRGTHYYGSSGAMDYWGQGTSVTVSS VL: DILLTQSHKFMSTSVGDRVSITCKASQNVGTAVAWYQQKPGQSPKLLIYSASNRYTGVPDRFTGSGSGTDFTLTISNMQSEDLADYFCQQYSSYPYTFGGGTKLEIK 9.06
